target: human plasma kallikrein (human, UniProt P03952 20-638); experiment: enzyme inhibition
Sequence (P03952 20-638): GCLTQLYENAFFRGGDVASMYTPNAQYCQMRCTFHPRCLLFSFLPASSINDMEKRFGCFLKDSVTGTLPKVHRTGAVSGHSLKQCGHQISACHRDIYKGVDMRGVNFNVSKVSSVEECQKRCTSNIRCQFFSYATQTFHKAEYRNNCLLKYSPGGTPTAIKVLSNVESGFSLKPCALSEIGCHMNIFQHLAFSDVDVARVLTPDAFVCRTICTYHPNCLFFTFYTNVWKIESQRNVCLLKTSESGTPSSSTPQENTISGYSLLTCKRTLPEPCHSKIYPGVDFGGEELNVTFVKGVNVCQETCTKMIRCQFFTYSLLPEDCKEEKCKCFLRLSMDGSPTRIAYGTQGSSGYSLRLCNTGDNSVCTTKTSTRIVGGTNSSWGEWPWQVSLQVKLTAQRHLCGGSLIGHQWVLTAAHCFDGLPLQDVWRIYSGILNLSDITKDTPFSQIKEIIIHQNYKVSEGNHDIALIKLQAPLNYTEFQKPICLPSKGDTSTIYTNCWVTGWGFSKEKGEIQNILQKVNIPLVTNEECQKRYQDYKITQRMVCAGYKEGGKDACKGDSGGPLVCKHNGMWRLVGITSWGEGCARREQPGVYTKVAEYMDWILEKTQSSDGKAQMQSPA
readout_name: Ki

TW101 (protein) EVCSEQAETGPCKAMISRWYFDVTEGKCAPFFYGGCGGNRNNFDTEEYCMAVCGSAI ... 2000 nM
DD108 (protein) EVVREVCSEQAETGPCRAAISRWYFDVTEGKCAPFFYGGCGGNRNNFDTEEYCMAVCGSAI ... 1.7 nM
DD109 (protein) EVVREVCSEQAETGPCRAIISRWYFDVTEGKCAPFFYGGCGGNRNNFDTEEYCMAVCGSAI ... 9.5 nM
TW106 (protein) EVCSEQAETGPCRARISRWYFDVTEGKCAPFFYGGCGGNRNNFDTEEYCMAVCGSAI ... 560 nM

I have this binder here, TW6167 (protein) EVVREVCSEQAEPGPCRAMISRWYFDVTEGKCAPFFYGGCGGNRNNFDTEEYCMAVCGSAI , and I need its recorded Ki. 61 nM
